- target_under_test: full-length human TH (TH1) (Homo sapiens, UniProt P07101)
- Sequence (P07101 1-497 isoform P07101-3): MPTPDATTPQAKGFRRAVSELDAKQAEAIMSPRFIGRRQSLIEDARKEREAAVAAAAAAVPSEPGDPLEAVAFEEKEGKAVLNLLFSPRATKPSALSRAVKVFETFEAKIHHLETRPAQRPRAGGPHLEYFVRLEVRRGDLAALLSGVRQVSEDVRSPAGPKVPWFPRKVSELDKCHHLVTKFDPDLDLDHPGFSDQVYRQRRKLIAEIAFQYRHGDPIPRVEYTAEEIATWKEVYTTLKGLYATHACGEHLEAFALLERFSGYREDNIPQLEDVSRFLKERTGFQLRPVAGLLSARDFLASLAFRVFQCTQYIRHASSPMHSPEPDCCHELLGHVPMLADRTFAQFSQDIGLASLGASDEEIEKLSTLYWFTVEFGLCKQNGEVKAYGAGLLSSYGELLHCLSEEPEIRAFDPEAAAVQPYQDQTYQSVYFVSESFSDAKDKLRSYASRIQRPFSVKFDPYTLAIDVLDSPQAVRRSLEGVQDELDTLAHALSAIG
- method: biochemical
- applied_conditions: mean ± SD, n = 3; 37 °C, 50 µM L-Tyr, 200 µM BH4; read-out: IC50 for DA inhibition of TH activity

| smiles_representation | IC50 |
| --- | --- |
| NCCc1ccc(O)c(O)c1 | ~500 nM |

====

- target_under_test: THNΔ70 (human TH with the entire N-terminal removed) (Homo sapiens)
- method: Assay of TH activity and inhibition by DA, deletion mutant THNΔ70
- applied_conditions: THNΔ70; mean ± SD, n = 3; 37 °C, 50 µM L-Tyr, 200 µM BH4

| compound | IC50 (µM) |
| --- | --- |
| NCCc1ccc(O)c(O)c1 [DA, dopamine] | 19.4 |

====

- target_under_test: THNΔ35 (human TH with the first 35 residues deleted) (Homo sapiens, UniProt P07101)
- Sequence (P07101 67-528 limits assumed, stated change not applied): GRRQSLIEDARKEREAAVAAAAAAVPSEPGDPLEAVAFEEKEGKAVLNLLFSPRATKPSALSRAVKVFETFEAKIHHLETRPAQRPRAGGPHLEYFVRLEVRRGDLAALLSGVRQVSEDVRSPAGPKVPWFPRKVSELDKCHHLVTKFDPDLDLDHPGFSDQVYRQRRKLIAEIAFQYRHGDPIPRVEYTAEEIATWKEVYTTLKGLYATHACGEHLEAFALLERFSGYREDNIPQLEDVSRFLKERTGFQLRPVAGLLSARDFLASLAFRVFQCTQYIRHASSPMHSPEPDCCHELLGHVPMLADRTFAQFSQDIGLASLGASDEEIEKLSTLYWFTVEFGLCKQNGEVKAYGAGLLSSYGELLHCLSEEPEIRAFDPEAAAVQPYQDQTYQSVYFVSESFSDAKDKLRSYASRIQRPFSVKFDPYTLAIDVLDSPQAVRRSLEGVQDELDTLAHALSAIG
- method: Assay of TH activity and inhibition by DA, deletion mutant THNΔ35
- applied_conditions: THNΔ35; mean ± SD, n = 3; 37 °C, 50 µM L-Tyr, 200 µM BH4
pIC50: −log10 of the molar value.

| smiles_representation | pIC50 |
| --- | --- |
| NCCc1ccc(O)c(O)c1 | 6.66 |

====

- target_under_test: THS40p (S40 phosphorylated human TH) (Homo sapiens, UniProt P07101)
- method: biochemical
- applied_conditions: Dopamine IC50, THS40p; source data Fig 5f, SEM in a column of its own
measurement_type: IC50 (µM)

| smiles_representation | observed |
| --- | --- |
| NCCc1ccc(O)c(O)c1 | 12.4 |
